Taken from PubChem BioAssay (NCI).

# Tested on: M14 melanoma
# procedure summary: NCI tumour cell line growth inhibition, 48 h
observation type: TGI

The following compounds have reported results that may help.
O=c1[nH]nnc2c1sc1ncccc12; > 100 µM
O=C1Sc2cc3ccccc3cc2C(=O)Sc2ccc(Br)cc21; 14.4 µM
CSc1nc(=O)n(CCC#N)nc1SC; 39.9 µM
COc1cccc(F)c1C(=O)c1cnc(NC2CCN(S(C)(=O)=O)CC2)nc1N; > 25 µM
CC1=C(C)CC2C(=O)N(c3cc(C(C)(C)C)ccc3C(C)(C)C)C(=O)C2C1 (configuration not stated); > 100 µM

What value of TGI on M14 melanoma does O=CCC1CCCCC1 have?
> 100 µM

Requested read-out TGI, target or system M14 melanoma, entry [N-]=[N+]=NC1(Cc2ccccc2)C(=O)c2cccc3c2N(CCC3)C1=O (configuration not stated)
> 100 µM

Please provide the recorded TGI for Cc1cc(Cl)cc(OCCn2cc(F)cn2)c1-c1nc(N)nc2c1CN(C(=O)NCC(C)(F)F)C2 , tested on M14 melanoma.
> 100 µM

Provide the documented TGI with M14 melanoma as the system for COc1ccc(OC)c2c1[nH]c(=O)c1c3ccccc3cn21
3.37 µM

M14 melanoma / TGI / COC(=O)C1=C(OC(=O)/C(=C/c2ccc(Cl)cc2)c2ccc(Cl)cc2)C(C(=O)OC)[C@@]2(O)[C@@H](C(=O)OC)[C@H](C)C[C@@H]1[C@@H]2C(=O)OC (some centres not stated) : value?
> 100 µM

GET /values?readout=TGI&system=M14 melanoma&item= O=C1CCC2(c3ccc(Cl)cc3)Nc3ncccc3N12 (configuration not stated)
> 100 µM

Form field: TGI recorded for CCN(CC)CCNc1ccc2nnn3c4ccc(OCCN(CC)CC)cc4c(=O)c1c23 with M14 melanoma (enter value)
> 100 µM

M14 melanoma / TGI / CC(C)(C)NNC(=O)CCn1[nH]c(=O)c(Cl)c(Cl)c1=O : value?
> 100 µM

Recall the recorded TGI for O=c1/c(=C/c2ccccc2[N+](=O)[O-])sc2nnc(-c3ccco3)n12 with M14 melanoma and state it.
33.3 µM

Please tell me: TGI of CCOC1(OCC)C2C=CC1C(COS(=O)(=O)c1ccc(C)cc1)C2COS(=O)(=O)c1ccc(C)cc1 (configuration not stated) , system M14 melanoma?
96.5 µM

Reported TGI for M14 melanoma, given C=C(Cl)C(=CCl)CCC(Br)C(C)(C)Cl (mixture of isomers) ?
> 10 µM

Report TGI for Cc1n(Cc2ccccc2)c2c([n+]1C)C(=O)c1ccccc1C2=O tested on M14 melanoma.
0.282 µM

What is its TGI for M14 melanoma? Entry: CC(=O)Nc1ccc(N=Nc2c(O)c(S(=O)(=O)O)cc3cc(S(=O)(=O)O)ccc23)cc1
> 100 µM

====

# Test system: TK-10 renal
# procedure summary: NCI tumour cell line growth inhibition, 48 h; in the data active = GI50 below about 0.43 µM; inactive = the rest
Give your call using only these classes: 1 = active, 0 = inactive

Example results:
CC[As](CC)SC[C@H](C)C(=O)N1CCC[C@H]1C(=O)O; 1
COc1ccc(/C=C\[N+](=O)[O-])cc1OC; 0
Cn1cc(C2=C(c3ccc(N)cc3)C(=O)NC2=O)c2ccccc21; 0
COc1cccc(F)c1C(=O)c1cnc(NC2CCN(S(C)(=O)=O)CC2)nc1N; 0
Cc1ccc(SC2c3ccc(C)cc3Oc3nc(N)c(C#N)c(N)c32)cc1 (stereo not given); 0

What did the test return for COc1cc(OCc2cccc(-c3ccc(C(O)c4nccs4)cc3)c2C)cc(OC)c1C=O (stereo not given) ?
0

Called result for Cc1cc(Nc2ccc(NC(=O)c3ccc(Nc4ccnc5ccccc45)cc3)cc2)nc(N)n1
0
